- test.system: recombinant tick kinin receptor (BMLK3) (Rhipicephalus microplus)
- Sequence (Q9NHA4 entry or part of it): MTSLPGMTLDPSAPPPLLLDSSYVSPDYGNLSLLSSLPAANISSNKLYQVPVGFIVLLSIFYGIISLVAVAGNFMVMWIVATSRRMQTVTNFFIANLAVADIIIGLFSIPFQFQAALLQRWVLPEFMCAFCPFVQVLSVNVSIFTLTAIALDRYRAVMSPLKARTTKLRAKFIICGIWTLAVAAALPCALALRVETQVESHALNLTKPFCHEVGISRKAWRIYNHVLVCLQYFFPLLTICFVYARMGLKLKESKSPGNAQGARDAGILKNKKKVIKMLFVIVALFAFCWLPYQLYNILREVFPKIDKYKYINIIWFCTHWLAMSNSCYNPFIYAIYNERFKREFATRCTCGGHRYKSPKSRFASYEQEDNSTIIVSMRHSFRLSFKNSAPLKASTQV
- assay.notes: Dose-response dual-addition calcium fluorescence assay on BMLK3 cells
- Assay type: cell-based
- setup.conditions: virtual hit molecules; dual-addition assay, recombinant tick kinin receptor (BMLK3) cells; read-out: BMLK3 antagonist IC50
reported.metric: pIC50
Just the number, please; pIC50 means minus log10 of the concentration in mol/L.

Q) Entry under review: CCC(CO)Nc1nc(CN2CCCCC2)nc2scc(-c3ccccc3)c12 (centres unmarked) [SACC-0046099] . Reported pIC50?
A) 5.08

Q) Note, next up: CN1/C(=C/C=C/c2ccc3ccccc3[n+]2C)C=Cc2ccccc21 [SACC-0072383]
A) 6.30

Q) Note, next up: CC1=CC(=NNC(=S)NCc2ccccc2)CC1 [SACC-0029249]
A) 5.73

Q) Note, next up: S=C(NCc1ccccc1)NN=C1CCC(c2ccccc2)CC1 (centres unmarked) [SACC-0131532]
A) 5.85

Q) Note, next up: O=C(c1ccco1)N1CCN(c2cccc3scc(-c4cccs4)c23)CC1 [SACC-0117388]
A) 4.88

Q) Note, next up: Cc1nc(-c2ccc(CNc3ncnc4sccc34)o2)cs1 [SACC-0039825]
A) 5.09

Q) Note, next up: Cc1ccc(S(=O)(=O)Nc2nc(CN3CCCC3)nc3sc(C)c(C)c23)cc1 [SACC-0025777]
A) 6.97

Q) Note, next up: CCN1C=C/C(=C\C=C\c2cc[n+](CC)c3ccccc23)c2ccccc21 [SACC-0054132]
A) 5.43

Q) Note, next up: C=CCNC(=S)NNC1=CC[C@@H](c2ccccc2)CC1 [SACC-0010978]
A) 5.01

Q) Note, next up: Cc1ccc(S(=O)(=O)Nc2ccc3nc(N)sc3c2)cc1 [SACC-0034373]
A) 5.21

Q) Note, next up: CSc1nc2ccc(NS(=O)(=O)c3ccc(Cl)s3)cc2s1 [SACC-0099442]
A) 5.14

Q) Note, next up: c1ccc(-c2csc3ncnc(N4CCCC4c4cccnc4)c23)cc1 (centres unmarked) [SACC-0011206]
A) 5.18

Q) Note, next up: COc1ccc(S(=O)(=O)Nc2ccc(O)c(Sc3nc4ccccc4s3)c2)cc1 [SACC-0089495]
A) 5.19

Q) Note, next up: COc1cc2c(cc1OC)CN(c1ncnc3scc(-c4ccc(Cl)cc4)c13)CC2 [SACC-0095849]
A) 5.07

Q) Note, next up: O=[N+]([O-])c1ccc2nc(Nc3ccc(Br)cc3)c(Nc3ccc(Br)cc3)nc2c1 [SACC-0005102]
A) 7.08
